B1: tRNA (parent)
chain: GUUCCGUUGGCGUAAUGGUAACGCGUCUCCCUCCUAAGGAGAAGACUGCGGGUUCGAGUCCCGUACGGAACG

Variants of: B1
measurement_notes: yeast fitness relative to wild type (ratio to wild type); higher = fitter; tRNA-Arg(CCU), competitive growth, 37 C, YPD
Fewer inactive variants are shown than the library holds.
measured_endpoint: yeast fitness

* U3A C49U | 0.954
* C5U C34A G38C | ≤ 0.5
* C33G U64A | ≤ 0.5
* U26G A42G A43C C46G | 0.677
* A15G C27U G58C | 0.717
* A45G C49A | 0.609
* C29G C34U A42G | ≤ 0.5
* A20C C22U G39C | ≤ 0.5
* C11G A15U A36U C66U | ≤ 0.5
* U16A A20G C27U G41C C55U A69U | ≤ 0.5
* C5U U16C C55A | 0.627
